system.under.test: His-tagged recombinant human ABL1 (Homo sapiens (Human), UniProt P00519)
Sequence (P00519 whole entry): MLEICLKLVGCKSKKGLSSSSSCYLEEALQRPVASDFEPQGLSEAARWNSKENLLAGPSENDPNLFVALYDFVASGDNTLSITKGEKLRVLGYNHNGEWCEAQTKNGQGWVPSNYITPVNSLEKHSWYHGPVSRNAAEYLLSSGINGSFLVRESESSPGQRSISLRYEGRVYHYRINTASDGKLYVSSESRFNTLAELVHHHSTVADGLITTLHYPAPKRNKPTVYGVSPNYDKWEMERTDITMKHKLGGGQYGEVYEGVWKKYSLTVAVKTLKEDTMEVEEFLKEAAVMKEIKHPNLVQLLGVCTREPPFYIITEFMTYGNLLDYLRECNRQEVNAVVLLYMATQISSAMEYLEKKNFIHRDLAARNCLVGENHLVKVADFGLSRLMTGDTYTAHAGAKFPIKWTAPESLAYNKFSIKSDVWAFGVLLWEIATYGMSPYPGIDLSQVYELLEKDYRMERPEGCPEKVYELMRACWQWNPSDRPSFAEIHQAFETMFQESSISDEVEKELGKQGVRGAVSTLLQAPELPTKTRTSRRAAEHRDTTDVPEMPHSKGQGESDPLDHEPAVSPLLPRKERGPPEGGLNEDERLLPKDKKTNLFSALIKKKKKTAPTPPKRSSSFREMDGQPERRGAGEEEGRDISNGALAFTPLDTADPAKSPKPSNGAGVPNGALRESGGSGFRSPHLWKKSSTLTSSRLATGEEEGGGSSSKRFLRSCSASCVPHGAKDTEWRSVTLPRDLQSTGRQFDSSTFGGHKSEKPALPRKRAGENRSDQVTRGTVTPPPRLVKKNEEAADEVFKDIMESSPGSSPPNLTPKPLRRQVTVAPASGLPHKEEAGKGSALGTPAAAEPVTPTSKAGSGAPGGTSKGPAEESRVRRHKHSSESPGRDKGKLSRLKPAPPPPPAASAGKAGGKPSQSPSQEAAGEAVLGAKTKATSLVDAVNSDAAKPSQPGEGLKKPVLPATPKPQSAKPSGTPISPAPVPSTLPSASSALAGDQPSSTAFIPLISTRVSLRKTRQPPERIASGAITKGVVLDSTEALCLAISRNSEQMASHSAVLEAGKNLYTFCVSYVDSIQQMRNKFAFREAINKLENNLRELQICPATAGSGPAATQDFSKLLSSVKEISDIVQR
condition.description: read-out: c-Abl IC50; 25 µM ATP, Abltide substrate, 30° C. 30-min
IC50 values by entry
The figure you give is taken to be in nM; do not add the unit.

Here's what some known entries look like.
**Query** Lookup: IC50 / His-tagged recombinant human ABL1 (Homo sapiens (Human), UniProt P00519) / Cc1c(-c2ccn3nc(NC(=O)[C@@H]4C[C@@H]4F)cc3c2)cnc2[nH]cc(Cl)c12 [Example 25]
**Result** 1.7

**Query** Lookup: IC50 / His-tagged recombinant human ABL1 (Homo sapiens (Human), UniProt P00519) / N#Cc1c(-c2ccn3nc(NC(=O)[C@@H]4C[C@@H]4F)cc3c2)cnc2[nH]ccc12 [Example 17]
**Result** 20.2

**Query** Lookup: IC50 / His-tagged recombinant human ABL1 (Homo sapiens (Human), UniProt P00519) / O=C(Nc1cc2cc(-c3cc4cc[nH]c4nc3Cl)ccn2n1)[C@@H]1C[C@@H]1F [Example 4]
**Result** 1.2

**Query** Lookup: IC50 / His-tagged recombinant human ABL1 (Homo sapiens (Human), UniProt P00519) / O=C(Nc1cc2cc(-c3cnc4[nH]ccc4c3Cl)ccn2n1)[C@H]1C[C@H]1F [Example 28]
**Result** 13.9

**Query** Lookup: IC50 / His-tagged recombinant human ABL1 (Homo sapiens (Human), UniProt P00519) / Nc1c(-c2ccn3nc(NC(=O)[C@@H]4C[C@@H]4F)cc3c2)cnc2[nH]ccc12 [Example 10]
**Result** 54.2

Continuing:
**Query** Lookup: IC50 / His-tagged recombinant human ABL1 (Homo sapiens (Human), UniProt P00519) / O=C(Nc1cc2cc(-c3cnc4[nH]cc(Cl)c4c3)ccn2n1)[C@@H]1C[C@@H]1F [Example 11]
**Result** 3.2

**Query** Lookup: IC50 / His-tagged recombinant human ABL1 (Homo sapiens (Human), UniProt P00519) / Cc1c(-c2ccn3nc(NC(=O)[C@@H]4C[C@@H]4F)cc3c2)cnc2[nH]ccc12 [Example 9]
**Result** 3.1

**Query** Lookup: IC50 / His-tagged recombinant human ABL1 (Homo sapiens (Human), UniProt P00519) / CC(C)c1c(-c2ccn3nc(NC(=O)[C@@H]4C[C@@H]4F)cc3c2)cnc2[nH]ccc12 [Example 15]
**Result** 159
